- Assay overview: Inhibition of farnesyltransferase
Attribute measured: pIC50

For orientation, consider the following solved cases.
Compound: N#Cc1ccc(Cn2cncc2CNC2CCN(C(=O)c3cccnc3N)C2=O)cc1 (centres undefined)
Measured value: 6.01

Compound: N#Cc1ccc(Cn2cncc2COCc2ccc(Cl)cc2-c2cccc(Cl)c2)cc1
Measured value: 9.2

Compound: N#Cc1ccc(Cn2cncc2CNC2CCN(C(=O)c3cccc(Cl)c3)C2=O)cc1 (centres undefined)
Measured value: 7.57

Compound: Cn1cncc1C(OCc1ccc(C#N)c(NCCc2ccccc2)n1)c1ccc(C#N)c(-c2ccccc2C(F)(F)F)c1 (centres undefined)
Measured value: 8.04

Compound: Cn1cncc1C(OCc1ccc(C#N)cc1)c1ccc(C#N)c(-c2cccc3ccccc23)c1 (centres undefined)
Measured value: 9.69

Compound: N#Cc1ccc(Cn2cncc2COCc2ccc(C#N)cc2-c2ccc(OC(F)(F)F)cc2)cc1
Measured value: 9.18

Can you share its pIC50? I mean this compound: "CCOc1cccc(-c2cc(C#N)ccc2COCc2cncn2Cc2ccc(C#N)nc2)c1"
9.23

Now this one: "N#Cc1ccc(Cn2cncc2COCc2ccc(C#N)cc2-c2cccc(Cl)c2)nc1"
8.76

Now this one: Cn1cncc1C(OCc1ccc(C#N)c(N2CCOCC2)n1)c1ccc(C#N)c(-c2ccccc2C(F)(F)F)c1 (centres undefined)
8.88

Now this one: "N#Cc1ccc(Cn2cncc2CN[C@@H]2CCN(c3ccccc3)C2=O)cc1"
6.69

###

- Assay overview: Inhibition of farnesyltransferase
Attribute measured: pIC50
No unit in the answer, only the number.

For orientation, consider the following solved cases.
Compound: Cc1ccccc1-c1cc(C(OCc2ccc(F)cc2)c2cncn2C)ccc1C#N (stereo not given)
pIC50: 7.49

Compound: Cn1cncc1C(OCc1ccc(C(F)(F)F)c(F)c1)c1ccc(C#N)c(-c2ccccc2C(F)(F)F)c1 (stereo not given)
pIC50: 8.21

Compound: COc1ncccc1C(=O)N1CCC(NCc2cncn2Cc2ccc(C#N)cc2)C1=O (stereo not given)
pIC50: 6.82

Compound: N#Cc1ccc(OCc2cncn2Cc2ccc(C#N)c(-c3cccc4ccccc34)c2)cc1
pIC50: 9.49

Can you share its pIC50? I mean this compound: Cc1ccccc1-c1cc(C(OCc2ccc(I)cc2)c2cncn2C)ccc1C#N (stereo not given)
7.88

Now this one: "N#Cc1ccc(Cn2cncc2CCN[C@@H]2CCN(Cc3ccccc3)C2=O)cc1"
6.6

Now this one: Cc1ccccc1-c1cc(C(OCc2cccc(Br)c2)c2cncn2C)ccc1C#N (stereo not given)
7.88

Now this one: Cn1cncc1C(OCc1ccc(C#N)cc1)c1ccc(C#N)c(-c2ccccc2CO)c1 (stereo not given)
8.25

Now this one: Cn1cncc1C(OCc1ccc(C#N)cc1)c1ccc(C#N)c(-c2ccccc2C=O)c1 (stereo not given)
8.72

Now this one: Cc1ccccc1-c1cc(C(OCc2ccc(C(C)C)cc2)c2cncn2C)ccc1C#N (stereo not given)
7.29

Now this one: N#Cc1ccc(Cn2cncc2CNC2CCN(C(=O)c3cccnc3S)C2=O)cc1 (stereo not given)
5.54

Now this one: "N#Cc1ccc(Cn2cncc2CCN[C@@H]2CCN(CCc3ccccc3)C2=O)cc1"
6.42

Now this one: N#Cc1ccc(Cn2cncc2CNC2CCN(C(=O)c3cncc(Br)c3)C2=O)cc1 (stereo not given)
7.37

Now this one: CC(C)(C)OC(=O)NCCCN(Cc1cncn1Cc1ccc(C#N)cc1)C1CCN(Cc2cccc(Cl)c2)C1=O (stereo not given)
8.89

Now this one: Cn1cncc1C(OCc1ccc(C#N)c(NCC2CCOC2)n1)c1ccc(C#N)c(-c2ccccc2C(F)(F)F)c1 (stereo not given)
8.11

Values compiled from ChEMBL document CHEMBL1795312.
